# System: SK-MEL-2
# measurement_protocol: NCI tumour cell line growth inhibition, 48 h
Calls of active or inactive are those of the source. No stated cut-off is given here; in the data, active = GI50 up to about 1.1 µM and inactive = higher.
A correct response names exactly one class from 1 = active, -1 = inactive

>  <compound>
NC(=O)NNc1nc(-c2ccccc2)cs1

>  <classification>
-1

$$$$
>  <compound>
Cc1ccccc1-n1c(N)c(-c2nc3ccccc3[nH]2)sc1=S

>  <classification>
-1

$$$$

Ask | Called result for `CN(C)c1ccc(/C=c2/c3ccccc3n3c2cc(C24CC5CC(CC(C5)C2)C4)[n+]3C)cc1`
Reply | 1

Ask | Just curious, what result did `Cc1ccc(-[n+]2cc([O-])on2)cc1` get here?
Reply | -1

Ask | Status in this test for CN1CCCCC(C(O)(c2ccccc2)c2ccccc2)C1=O (stereo unspecified) ?
Reply | -1

Ask | Recorded test call requested for `COc1c(OC)c(OC)c2c(=O)cc(-c3ccc(OC(C)C)cc3)oc2c1OC`
Reply | -1

----------
Can you tell me GI50 for the items I'm about to list?
# Test system: OVCAR-4
# measurement_protocol: NCI tumour cell line growth inhibition, 48 h
Activity calls are given as the source filed them. No stated cut-off is given here; in the data, active = GI50 up to about 1.1 µM and inactive = higher.

Answer for every listed entry: what is its GI50? The entries follow.
1. Cn1c(=O)nc2n(-c3ccc(Cl)c(C(F)(F)F)c3)c3ccccc3nc-2c1=O
2. CCN(CC)CCN(/C(=N/c1ccccc1)N1CCCCC1)c1ccccc1
3. O=C(/C=C/c1ccsc1)c1ccco1
4. CN1CCCCC(C(O)(c2ccccc2)c2ccccc2)C1=O (configuration not stated)

Reply |
1. 22.2 µM (inactive)
2. 3.87 µM (inactive)
3. 5.24 µM (inactive)
4. > 100 µM (inactive)

----------
# System: SF-295
# measurement_protocol: NCI tumour cell line growth inhibition, 48 h
Active and inactive are the calls of the source. Rule as the data show it: active = GI50 up to about 1.1 µM and inactive = higher.
API: response.call in Y (active), N (inactive)

See these solved cases before continuing.
>  <compound>
Oc1ncnc2c1CCCN2

>  <tested_system>
SF-295

>  <classification>
N

$$$$
>  <compound>
OCC1OC(n2cnc3c(Cl)nc(Nc4ccc(Cl)c(Cl)c4)nc32)CC1O (configuration not stated)

>  <tested_system>
SF-295

>  <classification>
N

$$$$
>  <compound>
O=S1(=O)OCCOS(=O)(=O)C1(Br)Cc1ccccc1

>  <tested_system>
SF-295

>  <classification>
N

$$$$

Ask | Record request — test call for `O=[N+]([O-])C(=C1NCCN1)C(Cl)=C(Cl)Cl`
Reply | N

Ask | Returns: the outcome recorded for `O=C(NCCCCNc1cccccc1=O)OCc1ccccc1` in this assay.
Reply | N

Ask | Fill in: this test's call for `CCCCCCC(=O)OC[n+]1ccc2c(C)c3[nH]c4ccc(OC)cc4c3c(C)c2c1` is ___
Reply | Y

Ask | I would be grateful if you could indicate the recorded call for Nc1ncnc2c1ncn2C1OC(CO)C(O)C(O)C1O (configuration not stated) .
Reply | N

Ask | For O=C1CCC(C(=O)O)C2=C1CCCC2 (configuration not stated) , which call appears in the assay record?
Reply | N

----------
# Tested on: SK-OV-3
# measurement_protocol: NCI tumour cell line growth inhibition, 48 h
Calls of active or inactive are those of the source. No stated cut-off is given here; in the data, active = GI50 up to about 1.1 µM and inactive = higher.
assay_endpoint: GI50

>  <compound>
C=C1C(=O)OC2C1C(OC(=O)/C(C)=C/C)CC1(C)C(=O)CCC(=C)C21 (stereo not given)

>  <tested_system>
SK-OV-3

>  <GI50>
25.2 µM (inactive)

$$$$

// input: 5 compounds below; output: GI50 for each
1. COC(=O)C1CC2c3c(c4ccccc4n3C)CC(C1=O)N2C (stereo not given)
2. CCCCCCCCCCCCN(O)C(=O)c1ccccc1
3. Cc1ccc(S(=O)(=O)NC(=O)NC(Cc2c[nH]c3ccccc23)C(=O)O)cc1 (stereo not given)
4. COc1ccc(Nc2nnc(CCCCCCCCc3nnc(Nc4ccc(OC)cc4)o3)o2)cc1
5. COc1ccc2c(C)cc(N/N=C/c3ccc(C)s3)nc2c1

Reply |
1: 51.4 µM (inactive); 2: 43.1 µM (inactive); 3: > 100 µM (inactive); 4: > 100 µM (inactive); 5: 17 µM (inactive)

The measurements presented in this section are drawn from ChEMBL document CHEMBL1201862.
